Kallikrein-7 (Homo sapiens): recorded log10 of EC50 for assorted compounds
Sequence (P49862 whole entry): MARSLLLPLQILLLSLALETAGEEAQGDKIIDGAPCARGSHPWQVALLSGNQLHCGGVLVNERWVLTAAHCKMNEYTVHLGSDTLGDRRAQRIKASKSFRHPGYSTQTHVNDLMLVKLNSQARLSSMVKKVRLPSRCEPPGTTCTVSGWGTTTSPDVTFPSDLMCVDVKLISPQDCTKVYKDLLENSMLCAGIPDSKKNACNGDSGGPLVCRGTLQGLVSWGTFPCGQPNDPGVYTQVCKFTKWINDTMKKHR
Lab note - EC50 converted to log10 from values in µM.

Worked examples follow.
COc1ccccc1C1CC(c2ccc(C)cc2)=Nc2nnnn21 (stereo not given)
1.37
COc1ccc(C2C(C(=O)N3CCOCC3)=C(C)N=C3CC(C)(C)CC(=O)C32)c(OC)c1 (stereo not given)
1.72
C=CCOC(=O)C1=C(C)N=C(SCC(=O)NC(=O)OCC)C(C#N)C1c1cccnc1 (stereo not given)
0.66

Requested read-out log10 of EC50, target or system Kallikrein-7 (Homo sapiens), entry COC(=O)CC1=C(C(=O)OC)C(c2ccccc2[N+](=O)[O-])C(C#N)C(=N)O1 (stereo not given)
0.91

Moving on to COc1ccccc1C1CC(c2ccccc2)=Nc2nnnn21 (stereo not given)
1.08

Moving on to COC(=O)c1ccc(C2C3=C(CC(C)(C)CC3=O)N=C(C)C2C#N)cc1 (stereo not given)
1.32
